- System: rat liver mitochondria (RLM)
- measurement-protocol: Mitochondrial respiration of isolated RLM (Clark-type oxygen electrode): RCR, ADP/O
- Assay type: biochemical
- measurement-conditions: RLM, Glutamate/Malate, 2.5 μM
Overview of recorded ADP/O for various compounds

[
  {
    "compound": "COC1=C(OC)C(=O)C(CCCCCCCCCC[P+](c2ccccc2)(c2ccccc2)c2ccccc2)=C(C)C1=O.CS(=O)(=O)[O-] [MitoQ, reference compound]",
    "ADP/O": 2.2
  },
  {
    "compound": "O=C(NCCCCCC[P+](c1ccccc1)(c1ccccc1)c1ccccc1)c1ccc(O)c(O)c1.[Br-] [AntiOxBEN1]",
    "ADP/O": 2.5
  },
  {
    "compound": "O=C(CCCCC[P+](c1ccccc1)(c1ccccc1)c1ccccc1)NCCCCCCNC(=O)c1cc(O)c(O)c(O)c1.[Br-] [AntiOxBEN3]",
    "ADP/O": 2.3
  },
  {
    "compound": "O=C(NCCCCCC[P+](c1ccccc1)(c1ccccc1)c1ccccc1)c1cc(O)c(O)c(O)c1.[Br-] [AntiOxBEN2]",
    "ADP/O": 2.3
  }
]

====

Measured Ep (redox potential) by item
- measurement-protocol: Redox potential by differential pulse and cyclic voltammetry, glassy carbon electrode
- Assay type: physicochemical
- measurement-conditions: physiological pH 7.4

[
  {
    "compound": "O=C(O)c1ccc(O)c(O)c1",
    "Ep (redox potential)": "0.257 V"
  },
  {
    "compound": "O=C(NCCCCCC[P+](c1ccccc1)(c1ccccc1)c1ccccc1)c1ccc(O)c(O)c1.[Br-] [AntiOxBEN1]",
    "Ep (redox potential)": "0.224 V"
  },
  {
    "compound": "O=C(O)c1cc(O)c(O)c(O)c1",
    "Ep (redox potential)": "0.163 V"
  },
  {
    "compound": "Cc1c(C)c2c(c(C)c1O)CCC(C)(C(=O)O)O2 (stereo not shown)",
    "Ep (redox potential)": "0.099 V"
  }
]

====

Item-by-item account of Repolarization Potential (ΔΨ in - mV)
- Test system: rat liver mitochondria (RLM)
- measurement-protocol: Mitochondrial transmembrane electric potential (safranine fluorescence)
- Assay type: biochemical
- measurement-conditions: Succinate, 2.5 μM

[
  {
    "compound": "COC1=C(OC)C(=O)C(CCCCCCCCCC[P+](c2ccccc2)(c2ccccc2)c2ccccc2)=C(C)C1=O.CS(=O)(=O)[O-] [MitoQ, reference compound]",
    "Repolarization Potential (ΔΨ in - mV)": "182.7 ± 9.2 - mV"
  },
  {
    "compound": "O=C(NCCCCCC[P+](c1ccccc1)(c1ccccc1)c1ccccc1)c1cc(O)c(O)c(O)c1.[Br-] [AntiOxBEN2]",
    "Repolarization Potential (ΔΨ in - mV)": "193.6 ± 17.8 - mV"
  },
  {
    "compound": "O=C(NCCCCCC[P+](c1ccccc1)(c1ccccc1)c1ccccc1)c1ccc(O)c(O)c1.[Br-] [AntiOxBEN1]",
    "Repolarization Potential (ΔΨ in - mV)": "190.3 ± 17.4 - mV"
  },
  {
    "compound": "O=C(CCCCC[P+](c1ccccc1)(c1ccccc1)c1ccccc1)NCCCCCCNC(=O)c1cc(O)c(O)c(O)c1.[Br-] [AntiOxBEN3]",
    "Repolarization Potential (ΔΨ in - mV)": "198.4 ± 18.4 - mV"
  }
]
